Entry source: paper PMC5706701

Task for the reader: assign each of the following compounds its reported Z-score.
Biological target: Human IP6K1 (Homo sapiens, UniProt Q92551)
Construct: GST (N, cleaved yes); made in house; host or cells: C43 E. coli, pGEX-6P-2
Sequence (Q92551 whole entry): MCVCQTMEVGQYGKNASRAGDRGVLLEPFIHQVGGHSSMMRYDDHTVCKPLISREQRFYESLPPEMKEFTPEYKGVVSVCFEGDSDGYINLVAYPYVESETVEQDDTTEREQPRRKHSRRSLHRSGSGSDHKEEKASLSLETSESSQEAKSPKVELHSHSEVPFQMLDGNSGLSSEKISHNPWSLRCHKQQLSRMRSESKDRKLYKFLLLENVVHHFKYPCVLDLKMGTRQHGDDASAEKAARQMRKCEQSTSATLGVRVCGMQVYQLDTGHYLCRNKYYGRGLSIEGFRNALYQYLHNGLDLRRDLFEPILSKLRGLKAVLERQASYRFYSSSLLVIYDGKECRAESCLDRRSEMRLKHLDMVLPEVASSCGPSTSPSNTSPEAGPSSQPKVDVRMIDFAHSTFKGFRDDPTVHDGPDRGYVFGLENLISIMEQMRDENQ
Experiment: IP6K1 high-throughput screen of the Sigma LOPAC (ADP-Glo Max, single point);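 note: final compound concentration 10µM in 5% DMSO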
Type: biochemical
Conditions: LOPAC single-point screen, Z-score against plate average and StDev
Where a name gives a salt, the structure may show the parent alone.
Answers are plain numbers.

Hey, quick one: what's Z-score for each of these?
1. O=C1C(SCCO)=C(SCCO)C(=O)c2ccccc21
2. Br.CN1CCc2cc(O)c(O)cc2C(c2ccccc2)C1 (stereo not drawn) [SKF 75670 hydrobromide]
3. CC(=O)SCC[N+](C)(C)C.[Cl-] [Acetylthiocholine chloride]

1. 0.07087
2. 0.01733
3. 0.1233

Need Z-score for each of these compounds.
1. Cl.N[C@@H](CCC(=O)O)C(=O)O [L-Glutamic acid hydrochloride]
2. O=C(O)/C=C\C(=O)O.O=C(O)/C=C\C(=O)O.c1ccc2nc(N3CCNCC3)ccc2c1 [Quipazine dimaleate]
3. CC1CCN(CC[C@H]2CCCN2S(=O)(=O)c2cccc(O)c2)CC1.Cl [SB 269970 hydrochloride]
4. Cl.OCc1c[nH]cn1 [4-Imidazolemethanol hydrochloride]
5. CCN1C(=O)C=CC1=O [N-Ethylmaleimide]
6. CCN(CC)CC#CCOC(=O)C(O)(c1ccccc1)C1CCCCC1 (stereo not drawn) [Oxybutynin Chloride]

[0.1466, 0.234, 0.2009, 0.2295, -0.02093, 0.2079]

Okay, here is my list. What is Z-score for each of these?
1. CC(C)(C)c1cc(C=C(C#N)C#N)cc(C(C)(C)C)c1O
2. CCn1cnc2c(Nc3cccc(Cl)c3)nc(N[C@@H]3CCCC[C@@H]3N)nc21.Cl [CGP-74514A hydrochloride]
3. CC1(C)CCC2=C(O1)c1ccccc1C(=O)C2=O

1. -0.07593
2. 0.1692
3. -0.03571

// input: 6 compounds below; output: Z-score for each
1. CCCN(CCC)C1Cc2cc(OC)c(OC)cc2C1.O=C(O)/C=C\C(=O)O [U-99194A maleate]
2. CN[C@@H]1C[C@@H](c2ccc(Cl)c(Cl)c2)c2ccccc21 [Indatraline hydrochloride]
3. Cl.N[C@@H](CCl)C(=O)O [beta-Chloro-L-alanine hydrochloride]
4. COc1cc2nc(N3CCN(C(=O)c4ccco4)CC3)nc(N)c2cc1OC [Prazosin hydrochloride]
5. COc1cc(C[C@@H](C)N)c(OC)cc1I.Cl [( R)-(-)-DOI hydrochloride]
6. O=c1ccc2ccc(O)c(O)c2o1

1: 0.3187; 2: -0.07855; 3: 0.1865; 4: 0.179; 5: -0.07312; 6: -0.02478

====

Target: Human IP6K1 (Homo sapiens)
Construct: GST (N, cleaved yes); made in house; host or cells: C43 E. coli, pGEX-6P-2
Test: IP6K1 high-throughput screen of the Sigma LOPAC (ADP-Glo Max, single point);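 note: final compound concentration 10µM in 5% DMSO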
Format: biochemical
Details: LOPAC single-point screen, Z-score against plate average and StDev
Where a name gives a salt, the structure may show the parent alone.
Z-score strictly less than 0.08 = YES. Otherwise NO.

>  <molecule>
Cl.O=C(O)Cc1c[nH]cn1 [Imidazole-4-acetic acid hydrochloride]

>  <class label>
NO

$$$$
>  <molecule>
CC(Cc1ccc(O)cc1)NCC(O)c1cc(O)cc(O)c1 (centres unmarked) [Fenoterol hydrobromide]

>  <class label>
NO

$$$$

Quick check: does COc1ccc(C(=O)NCc2cccnc2)cc1C(=O)NCc1cccnc1 [Picotamide] have Z-score under 0.08?
YES

Say whether its Z-score is strictly beneath 0.08. Entry: CN1C2CCC1CC(OC(=O)c1c[nH]c3ccccc13)C2.Cl (centres unmarked)
YES
